Target: T1, cMet-Fc fusion protein (extracellular domain of the cMet receptor expressed as an Fc-fusion protein) (human, UniProt P08581 25-932)
T1 construct: extracellular domain; also called soluble cMet-Fc-fusion protein; soluble cMet receptor; not shown: Fc part
T1 sequence (P08581 25-932): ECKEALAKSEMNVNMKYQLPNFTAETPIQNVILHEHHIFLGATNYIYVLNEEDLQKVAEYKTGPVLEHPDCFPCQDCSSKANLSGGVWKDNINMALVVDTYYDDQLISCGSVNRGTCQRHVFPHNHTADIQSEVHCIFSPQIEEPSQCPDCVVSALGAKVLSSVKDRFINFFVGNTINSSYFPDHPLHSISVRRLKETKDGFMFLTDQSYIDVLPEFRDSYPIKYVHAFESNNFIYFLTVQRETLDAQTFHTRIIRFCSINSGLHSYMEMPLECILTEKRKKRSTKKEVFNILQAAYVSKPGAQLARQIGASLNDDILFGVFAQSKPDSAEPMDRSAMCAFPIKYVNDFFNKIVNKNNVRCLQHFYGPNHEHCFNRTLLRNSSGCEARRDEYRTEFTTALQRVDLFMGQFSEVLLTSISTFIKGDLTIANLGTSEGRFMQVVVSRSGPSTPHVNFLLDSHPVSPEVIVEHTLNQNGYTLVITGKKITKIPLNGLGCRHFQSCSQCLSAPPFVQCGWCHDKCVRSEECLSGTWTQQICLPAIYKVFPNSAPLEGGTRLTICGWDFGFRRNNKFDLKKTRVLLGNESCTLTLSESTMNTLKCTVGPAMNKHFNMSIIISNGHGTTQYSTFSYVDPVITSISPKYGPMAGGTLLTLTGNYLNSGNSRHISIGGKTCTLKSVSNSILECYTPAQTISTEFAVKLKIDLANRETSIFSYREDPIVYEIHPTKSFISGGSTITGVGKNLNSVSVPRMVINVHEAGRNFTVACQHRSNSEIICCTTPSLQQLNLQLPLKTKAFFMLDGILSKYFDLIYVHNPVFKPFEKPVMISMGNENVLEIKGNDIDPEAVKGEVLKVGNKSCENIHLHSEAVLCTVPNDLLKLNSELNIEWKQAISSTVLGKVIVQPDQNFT
Test: phage ELISA, cMet-Fc vs TRAIL-Fc
Procedure: Protein phage ELISAs using peptide-displaying phage isolates from the various selection campaigns were performed to determine specificity of the peptides for cMet versus an unrelated Fc-fusion protein (TRAIL-Fe). […] The plates were incubated for 2 hours at room temperature and washed with PBST. cMet-binding peptide-displaying phage were detected using an HRP-conjugated anti-M13 antibody.
Tick satisfied if Protein ELISA (fold over background) is 4 fold or greater. Tick not satisfied if Protein ELISA (fold over background) is less than 4 fold.

Examples with answers:
{"Binder": "AQRDYLFYWNDGSYQPWQVFVG [523-A04 peptide-displaying phage (SEQ ID NO: 493)]", "Qualitative Label": "satisfied"}
{"Binder": "AGQMWCAEKNSKCYQWGT [465-D12 peptide-displaying phage (SEQ ID NO: 030)]", "Qualitative Label": "not satisfied"}
{"Binder": "AGFVNCKGPPTFECILTGT [538-F08 peptide-displaying phage (SEQ ID NO: 057)]", "Qualitative Label": "satisfied"}
{"Binder": "AQLFQYLWHDDPQGAFFQLSMW [98-F05 peptide-displaying phage (SEQ ID NO: 483)]", "Qualitative Label": "not satisfied"}

Determine whether measured Protein ELISA (fold over background) meets or exceeds 4 fold for AQNAVVPPPMLWSIYWDYGREG [94-H04 peptide-displaying phage (SEQ ID NO: 457)] satisfied

Given the entry AGVTNCNLSTMFCFLHGT [465-F08 peptide-displaying phage (SEQ ID NO: 026)] , answer whether its Protein ELISA (fold over background) meets or surpasses 4 fold. not satisfied

Say whether AGPLFCFEWPSLCHWGGT [448-H02 peptide-displaying phage (SEQ ID NO: 033)] shows Protein ELISA (fold over background) of 4 fold or more. not satisfied

// inclusive: Protein ELISA (fold over background) at least 4 fold? input: AQHGYLSPLKQYQMSHVEFWTY [94-A06 peptide-displaying phage (SEQ ID NO: 476)] not satisfied

Threshold query (Protein ELISA (fold over background) >= 4 fold) on AGWTHCIGPPTFECIPMGT [334-G06 peptide-displaying phage (SEQ ID NO: 052)] satisfied

// inclusive: Protein ELISA (fold over background) at least 4 fold? input: AGWISCAGPPTFACWPGGT [548-F06 peptide-displaying phage (SEQ ID NO: 056)] satisfied
